Taken from PubChem BioAssay AID1259374.

In this section we review reported inhibition values for a set of compounds.
TARGET_OR_TEST_SYSTEM: Microphthalmia-associated transcription factor (Homo sapiens)
EXPERIMENT_SUMMARY: MITF inhibitors, primary screen, biochemical, AlphaScreen, human (AID 1259374);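 also: 0% = vehicle wells with protein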
CONDITION_DETAILS: AlphaScreen MITF homodimerization, bead proximity signal; at 2.6 µM; active compounds read high
The whole screen tested about 650,000 compounds, of which about 5,900 (0.91%) were called active. For the sample, actives were picked, then their nearest neighbours and some compounds at random.
// return numeric value only (unit: %, not printed)

>  <COMPOUND>
CCOc1ccccc1Nc1nnc(Cc2ccc(OC)cc2)c(=O)[nH]1

>  <inhibition, %>
24.2

$$$$
>  <COMPOUND>
O=C(Nc1ccc(N2CCC(NCc3ccc4c(c3)OCO4)CC2)cc1)C1CCCC1

>  <inhibition, %>
-10.3

$$$$

Please respond with reported inhibition (system Microphthalmia-associated transcription factor (Homo sapiens)) for Cc1ccc(C2=NN3C(=N)/C(=C/c4ccco4)C(=O)N=C3S2)cc1 .
-3.9

Specify the recorded inhibition for CC(C)NC(=O)NC(=O)COC(=O)c1ccc(Cl)c(S(N)(=O)=O)c1 , system: Microphthalmia-associated transcription factor (Homo sapiens).
0.26

Give reported inhibition for COc1ccc(C(=O)N2CCN(Cc3cc(OC)c(OC)cc3OC)CC2)cc1 (Microphthalmia-associated transcription factor (Homo sapiens))
-7.92

Give inhibition; test system Microphthalmia-associated transcription factor (Homo sapiens); compound COc1ccc(NC2c3cccc4cccc(c34)C2NS(=O)(=O)c2ccccc2)cc1 (centres undefined)
23.3

----------
TARGET_OR_TEST_SYSTEM: Microphthalmia-associated transcription factor (Homo sapiens) (UniProt O75030)
Sequence (O75030 whole entry, looked up): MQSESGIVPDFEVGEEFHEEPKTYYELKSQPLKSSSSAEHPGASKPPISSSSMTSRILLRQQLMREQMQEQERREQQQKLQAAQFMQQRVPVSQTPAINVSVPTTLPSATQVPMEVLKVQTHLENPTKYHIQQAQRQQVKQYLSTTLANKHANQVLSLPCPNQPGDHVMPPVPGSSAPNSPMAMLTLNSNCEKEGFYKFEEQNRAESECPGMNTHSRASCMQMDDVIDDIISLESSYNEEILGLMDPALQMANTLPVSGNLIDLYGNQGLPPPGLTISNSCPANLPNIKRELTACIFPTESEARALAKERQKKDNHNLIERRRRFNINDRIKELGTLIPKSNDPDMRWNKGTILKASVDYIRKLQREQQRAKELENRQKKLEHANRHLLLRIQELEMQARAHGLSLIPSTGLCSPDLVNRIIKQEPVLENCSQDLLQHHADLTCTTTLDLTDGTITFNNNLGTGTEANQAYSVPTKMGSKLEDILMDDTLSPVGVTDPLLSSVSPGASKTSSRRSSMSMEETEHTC
EXPERIMENT_SUMMARY: MITF inhibitors, primary screen, biochemical, AlphaScreen, human (AID 1259374);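 also: 0% = vehicle wells with protein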
CONDITION_DETAILS: AlphaScreen MITF homodimerization, bead proximity signal; at 2.6 µM; active compounds read high
Screen size: about 650,000 compounds; about 5,900 (0.91%) were called active. The sample holds actives, similar compounds and a random draw of the others, so the mix is not that of the screen.
MEASUREMENT_NAME: inhibition (%)
Your answer is read as %, so omit the unit and give the number.

Worked set:
>  <SMILES_STRUCTURE>
O=C(CCc1nnc(-c2ccccc2)o1)NC1(c2ccccc2)CC1

>  <inhibition [%]>
-2.49

$$$$
>  <SMILES_STRUCTURE>
c1cc2c(cc1CNc1nc(Nc3ccc(N4CCOCC4)cc3)c3ncn(C4CCCCC4)c3n1)OCO2

>  <inhibition [%]>
53.1

$$$$
>  <SMILES_STRUCTURE>
c1ccc(CN2CCC(Nc3nc(NCc4ccc5c(c4)OCO5)nc4c3ncn4C3CCCCC3)CC2)cc1

>  <inhibition [%]>
16.3

$$$$
>  <SMILES_STRUCTURE>
CC(=O)c1ccc(OCC(=O)N2CCOCC2)cc1

>  <inhibition [%]>
-0.62

$$$$
>  <SMILES_STRUCTURE>
O=S(=O)(c1ccc(F)cc1)N1CCN(Cc2ccccc2F)CC1

>  <inhibition [%]>
3

$$$$
>  <SMILES_STRUCTURE>
O=S(=O)(c1ccc(F)cc1)N1CCN(Cc2ccccc2C(F)(F)F)CC1

>  <inhibition [%]>
59.6

$$$$

Switching to the query record.
Provide measured inhibition value, entry: COc1ccc(/C=C/C(=O)NCc2ccccc2OC)cc1
-9.24

----------
TARGET_OR_TEST_SYSTEM: Microphthalmia-associated transcription factor (Homo sapiens)
EXPERIMENT_SUMMARY: MITF inhibitors, primary screen, biochemical, AlphaScreen, human (AID 1259374);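 also: 0% = vehicle wells with protein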
CONDITION_DETAILS: AlphaScreen MITF homodimerization, bead proximity signal; at 2.6 µM; active compounds read high
About 5,900 (0.91%) of roughly 650,000 compounds were called active. The sample as a whole holds a higher share of actives than the screen did.
If the reported inhibition equals or exceeds 50%, assign 1. If not, assign -1.

Use these answered entries as a reference point.
>  <MOLECULE>
Cc1cccc(CSc2n[nH]c(=O)[nH]c2=O)c1

>  <ASSIGNED_CATEGORY>
1

$$$$
>  <MOLECULE>
CNC(=O)c1c(NC(=O)C2CCCCC2)sc2c1CCC(C)C2 (stereo unspecified)

>  <ASSIGNED_CATEGORY>
-1

$$$$
>  <MOLECULE>
O=C(c1ccccc1F)N1CCN(C2CCCC2)CC1

>  <ASSIGNED_CATEGORY>
-1

$$$$
>  <MOLECULE>
CCC(C)c1ccccc1NC(=O)CN(C)CC(=O)Nc1ccccc1SC (stereo unspecified)

>  <ASSIGNED_CATEGORY>
1

$$$$
>  <MOLECULE>
O=C(Nc1nc2ccccc2s1)C(Cc1ccccc1)N1C(=O)c2ccccc2C1=O (stereo unspecified)

>  <ASSIGNED_CATEGORY>
-1

$$$$

Record Cc1cc(S(=O)(=O)Nc2ccc3c(c2)OCCO3)ccc1-n1cnnn1 ; criterion: inhibition no lower than 50%. Met?
1

----------
Measured inhibition by item
TARGET_OR_TEST_SYSTEM: Microphthalmia-associated transcription factor (Homo sapiens) (UniProt O75030)
EXPERIMENT_SUMMARY: MITF inhibitors, primary screen, biochemical, AlphaScreen, human (AID 1259374);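 also: 0% = vehicle wells with protein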
CONDITION_DETAILS: AlphaScreen MITF homodimerization, bead proximity signal; at 2.6 µM; active compounds read high
The campaign covered roughly 650,000 compounds. About 5,900 (0.91%) were called active. For the sample, actives were picked, then their nearest neighbours and some compounds at random.

Completed entries (count: 2):
>  <MOLECULE>
N#Cc1ccc(NC(=O)c2ccccc2C(=O)O)cc1

>  <MEASUREMENT_NAME>
inhibition

>  <TEST_RESULT>
4.7% (inactive)

$$$$
>  <MOLECULE>
O=C(CCS(=O)(=O)c1cccc2nonc12)N1CCCC1

>  <MEASUREMENT_NAME>
inhibition

>  <TEST_RESULT>
11.4% (inactive)

$$$$

# return recorded inhibition for input CCN(CC)c1ccc(NC(=O)CCc2nnc3ccc(N4CCCCC4)nn23)c(C)c1
15.7% (inactive)

----------
TARGET_OR_TEST_SYSTEM: Microphthalmia-associated transcription factor (Homo sapiens) (UniProt O75030)
EXPERIMENT_SUMMARY: MITF inhibitors, primary screen, biochemical, AlphaScreen, human (AID 1259374);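 also: 0% = vehicle wells with protein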
CONDITION_DETAILS: AlphaScreen MITF homodimerization, bead proximity signal; at 2.6 µM; active compounds read high
The campaign covered roughly 650,000 compounds. About 5,900 (0.91%) were called active. The entries come from a sample that favours actives as a whole.
Label yes (1) when inhibition >= 10%; otherwise no (0).

Below, 5 molecules whose answers are already recorded.
>  <MOLECULE>
O=C(O)CN1C(=O)/C(=C/c2cccc([N+](=O)[O-])c2)SC1=S

>  <TARGET_OR_TEST_SYSTEM>
Microphthalmia-associated transcription factor (Homo sapiens) (UniProt O75030)

>  <ASSIGNED_CATEGORY>
no (0)

$$$$
>  <MOLECULE>
Cc1nn(C)c(C)c1-c1cc(C(=O)NCCO)ccn1

>  <TARGET_OR_TEST_SYSTEM>
Microphthalmia-associated transcription factor (Homo sapiens) (UniProt O75030)

>  <ASSIGNED_CATEGORY>
no (0)

$$$$
>  <MOLECULE>
COc1ccccc1C(=O)N/N=C/c1ccc(O)cc1O

>  <TARGET_OR_TEST_SYSTEM>
Microphthalmia-associated transcription factor (Homo sapiens) (UniProt O75030)

>  <ASSIGNED_CATEGORY>
yes (1)

$$$$
>  <MOLECULE>
COc1ccccc1N1CCN(C2CCN(Cc3ccccc3[N+](=O)[O-])CC2)CC1

>  <TARGET_OR_TEST_SYSTEM>
Microphthalmia-associated transcription factor (Homo sapiens) (UniProt O75030)

>  <ASSIGNED_CATEGORY>
no (0)

$$$$
>  <MOLECULE>
CC(C)c1ccc(C2/C(=C(/O)c3ccccc3)C(=O)C(=O)N2CCN(C)C)cc1 (stereo not given)

>  <TARGET_OR_TEST_SYSTEM>
Microphthalmia-associated transcription factor (Homo sapiens) (UniProt O75030)

>  <ASSIGNED_CATEGORY>
yes (1)

$$$$

Hello, I need to know if O=C(NNC(=O)c1ccccn1)NC12CC3CC(CC(C3)C1)C2 has measured inhibition not below 10%. Thanks!
no (0)

Determine whether this molecule has inhibition no lower than 10%: CCN1CCN(CCOCCOc2ccccc2OCc2ccccc2)CC1
yes (1)

----------
TARGET_OR_TEST_SYSTEM: Microphthalmia-associated transcription factor (Homo sapiens)
EXPERIMENT_SUMMARY: MITF inhibitors, primary screen, biochemical, AlphaScreen, human (AID 1259374);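 also: 0% = vehicle wells with protein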
CONDITION_DETAILS: AlphaScreen MITF homodimerization, bead proximity signal; at 2.6 µM
Out of some 650,000 compounds screened, about 5,900 (0.91%) were called active. No stated cut-off is given here; in the data, active means inhibition above about 50%; inactive means the rest. The sample holds actives, similar compounds and a random draw of the others, so the mix is not that of the screen.
Classes to choose from: active, inactive

>  <MOLECULE>
COC(=O)c1sc(NC(=O)c2ccccc2C)c(C#N)c1C

>  <ASSIGNED_CATEGORY>
active

$$$$
>  <MOLECULE>
Cc1ccc(OCCCNCCN)c(Br)c1

>  <ASSIGNED_CATEGORY>
inactive

$$$$
>  <MOLECULE>
COc1ccc2nc(N3CCN(CCNC(=O)c4ccco4)CC3)sc2c1

>  <ASSIGNED_CATEGORY>
inactive

$$$$
>  <MOLECULE>
CC(C)NC(=O)Nc1ccc(CN2CCN(C)CC2)cc1

>  <ASSIGNED_CATEGORY>
inactive

$$$$
>  <MOLECULE>
O=C(c1cccc(Cl)c1)N1CCN(Cc2cccnc2)CC1

>  <ASSIGNED_CATEGORY>
active

$$$$
>  <MOLECULE>
c1ccc(-c2ccccc2OCCNCCN2CCOCC2)cc1

>  <ASSIGNED_CATEGORY>
active

$$$$
>  <MOLECULE>
O=C1c2ccccc2C(O)N1Cc1ccccc1Cl (configuration not stated)

>  <ASSIGNED_CATEGORY>
active

$$$$
>  <MOLECULE>
Clc1cccc(N2CCN(Cc3cccnc3)CC2)c1

>  <ASSIGNED_CATEGORY>
inactive

$$$$

Field: outcome | Entry: CN(CCC(=O)Nc1cccc(F)c1)Cc1ccccc1
inactive

For this molecule, state the assay outcome: CCOc1ccc(CN2CCN(Cc3ccc(OCC)cc3)C(CCO)C2)cc1 (configuration not stated)
inactive

Write down the call the test reported for this molecule. Item: COC(=O)c1sc(NC(=O)c2ccncc2)c(C#N)c1C
inactive

Per the records of this test, what outcome belongs to CCOC(=O)c1sc2nc(SCC(=O)N3CCCC3)n(Cc3ccc(C)cc3)c(=O)c2c1C ?
inactive
